- target-of-assay: T1, HLA-A*03:01 (human)
- T1 construct: also called peptide-receptive MHC molecules
- test: UV-exchange b2m ELISA; exchange-yield grade
Entries and their measured peptide exchange yield follow.
readout: peptide exchange yield

binder: RMFADDLHNLNK
readout: peptide exchange yield
result: 50 to 75%

binder: VLADSVTTK
readout: peptide exchange yield
result: 20 to 50%

binder: RQPERTILRPR
readout: peptide exchange yield
result: 20 to 50%

binder: ATFERVLLR
readout: peptide exchange yield
result: 50 to 75%

binder: RTEEVLLTFK
readout: peptide exchange yield
result: 20 to 50%

binder: VVLLGSLFSRK
readout: peptide exchange yield
result: 20 to 50%

binder: SVSSETTKIKR
readout: peptide exchange yield
result: 20 to 50%

binder: RSRLNPLVQR
readout: peptide exchange yield
result: 20 to 50%

binder: GAYAHTVNR
readout: peptide exchange yield
result: 50 to 75%

binder: RMASPVNVK
readout: peptide exchange yield
result: > 75%

binder: KVAGERYVYK
readout: peptide exchange yield
result: 50 to 75%

binder: KILEEHTNK
readout: peptide exchange yield
result: 20 to 50%

binder: AVAPPTPASK
readout: peptide exchange yield
result: 20 to 50%

binder: IVQEPTEEK
readout: peptide exchange yield
result: 20 to 50%

binder: SAAPPSYFR
readout: peptide exchange yield
result: 20 to 50%

binder: SLKERNPLK
readout: peptide exchange yield
result: 20 to 50%

Recorded values, source patent US20180222961A1.
